READOUT KIND: melting point

{"columns": ["MOLECULE", "melting point"],
 "data": [
  ["Clc1cccc(Nc2nc(C3CCCC3)nc3c2cnn3CC(Cl)c2ccccc2)c1 (stereo not drawn) [2i]", "189 to 190 °C"],
  ["CCc1nc(Nc2ccccc2)c2cnn(CC(Cl)c3ccc(Cl)cc3)c2n1 (stereo not drawn) [2r]", "193 to 195 °C"]
]}

Q: Provide melting point value for the following molecule: CCCc1nc(Nc2ccccc2)c2cnn(CC(Cl)c3ccc(Cl)cc3)c2n1 (stereo not drawn) [2s]
A: 154 to 156 °C

Q: Provide melting point value for the following molecule: CCc1nc(Nc2ccccc2)c2cnn(CC(Cl)c3ccccc3)c2n1 (stereo not drawn) [2h]
A: 174 to 176 °C

Q: Provide melting point value for the following molecule: Cl.Oc1cc(Nc2nc(SCCN3CCOCC3)nc3c2cnn3CC(Cl)c2ccccc2)ccc1F (stereo not drawn) [2f]
A: 238 to 239 °C

Q: Provide melting point value for the following molecule: FC(F)(F)c1nc(Nc2cccc(Cl)c2)c2cnn(CC(Cl)c3ccccc3)c2n1 (stereo not drawn) [2m]
A: 88 to 90 °C

###

- SYSTEM TESTED: Fyn (Homo sapiens, UniProt P06241)
- Construct: purchased Merck-Millipore
- Sequence (P06241 whole entry, species assumed): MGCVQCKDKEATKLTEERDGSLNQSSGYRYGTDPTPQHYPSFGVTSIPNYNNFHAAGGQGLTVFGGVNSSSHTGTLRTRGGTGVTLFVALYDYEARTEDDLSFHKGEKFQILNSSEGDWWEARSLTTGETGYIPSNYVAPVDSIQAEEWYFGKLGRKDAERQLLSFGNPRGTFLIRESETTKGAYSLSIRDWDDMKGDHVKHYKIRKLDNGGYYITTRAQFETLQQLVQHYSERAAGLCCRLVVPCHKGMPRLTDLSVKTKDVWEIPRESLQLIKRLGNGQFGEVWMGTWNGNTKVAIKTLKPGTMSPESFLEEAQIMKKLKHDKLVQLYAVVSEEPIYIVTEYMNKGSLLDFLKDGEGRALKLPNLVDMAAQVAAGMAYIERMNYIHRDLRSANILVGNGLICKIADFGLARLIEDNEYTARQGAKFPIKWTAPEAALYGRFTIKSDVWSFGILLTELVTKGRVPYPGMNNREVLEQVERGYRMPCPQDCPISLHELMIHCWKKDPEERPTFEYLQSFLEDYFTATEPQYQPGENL
- EXPERIMENT: Fyn enzymatic assay (ADP-Glo kinase assay)
- Assay type: biochemical
- EXPERIMENTAL PARAMETERS: 10 µM
Label true when inhibition at 10 µM is at or above 60%; anything below gets false.

Here's what some known entries look like.
{"columns": ["COMPOUND", "CAT"],
 "data": [
  ["CCc1nc(Nc2ccccc2)c2cnn(CC(Cl)c3ccc(Cl)cc3)c2n1 (centres unmarked)", "true"],
  ["CCc1nc(Nc2ccccc2)c2cnn(CC(Cl)c3ccccc3)c2n1 (centres unmarked)", "false"],
  ["Cc1nc(Nc2ccccc2)c2cnn(CC(Cl)c3ccc(Cl)cc3)c2n1 (centres unmarked)", "true"]
]}

Q: # bool: inhibition at 10 µM of FC(F)(F)c1nc(Nc2ccccc2)c2cnn(CC(Cl)c3ccccc3)c2n1 (centres unmarked) >= 60%
A: false

###

- SYSTEM TESTED: Fyn (Homo sapiens)
- Construct: purchased Merck-Millipore
- EXPERIMENT: Fyn enzymatic assay (ADP-Glo kinase assay)
- Format: biochemical
- EXPERIMENTAL PARAMETERS: 10 µM
READOUT KIND: inhibition at 10 µM
# output: numeric value plus its unit

// solved cases for inhibition at 10 µM follow
{"columns": ["COMPOUND", "OBSERVED MEASUREMENT"],
 "data": [
  ["Clc1cccc(Nc2nc(-c3ccccc3)nc3c2cnn3CC(Cl)c2ccccc2)c1 (stereo not shown) [2o]", "8%"],
  ["CSc1nc(Nc2ccccc2Cl)c2cnn(CC(Cl)c3ccccc3)c2n1 (stereo not shown) [2a]", "90.7%"],
  ["Fc1cccc(Nc2nc(C(F)(F)F)nc3c2cnn3CC(Cl)c2ccccc2)c1 (stereo not shown) [2l]", "10%"]
]}

// next entry
Q: Provide inhibition at 10 µM value for the following compound: CCSc1nc(Nc2ccccc2)c2cnn(CC(Cl)c3ccccc3)c2n1 (stereo not shown) [2c]
A: 64%

###

Ki listing for selected molecules.
- SYSTEM TESTED: Abl (Homo sapiens, UniProt P00519)
- Sequence (P00519 whole entry, species assumed): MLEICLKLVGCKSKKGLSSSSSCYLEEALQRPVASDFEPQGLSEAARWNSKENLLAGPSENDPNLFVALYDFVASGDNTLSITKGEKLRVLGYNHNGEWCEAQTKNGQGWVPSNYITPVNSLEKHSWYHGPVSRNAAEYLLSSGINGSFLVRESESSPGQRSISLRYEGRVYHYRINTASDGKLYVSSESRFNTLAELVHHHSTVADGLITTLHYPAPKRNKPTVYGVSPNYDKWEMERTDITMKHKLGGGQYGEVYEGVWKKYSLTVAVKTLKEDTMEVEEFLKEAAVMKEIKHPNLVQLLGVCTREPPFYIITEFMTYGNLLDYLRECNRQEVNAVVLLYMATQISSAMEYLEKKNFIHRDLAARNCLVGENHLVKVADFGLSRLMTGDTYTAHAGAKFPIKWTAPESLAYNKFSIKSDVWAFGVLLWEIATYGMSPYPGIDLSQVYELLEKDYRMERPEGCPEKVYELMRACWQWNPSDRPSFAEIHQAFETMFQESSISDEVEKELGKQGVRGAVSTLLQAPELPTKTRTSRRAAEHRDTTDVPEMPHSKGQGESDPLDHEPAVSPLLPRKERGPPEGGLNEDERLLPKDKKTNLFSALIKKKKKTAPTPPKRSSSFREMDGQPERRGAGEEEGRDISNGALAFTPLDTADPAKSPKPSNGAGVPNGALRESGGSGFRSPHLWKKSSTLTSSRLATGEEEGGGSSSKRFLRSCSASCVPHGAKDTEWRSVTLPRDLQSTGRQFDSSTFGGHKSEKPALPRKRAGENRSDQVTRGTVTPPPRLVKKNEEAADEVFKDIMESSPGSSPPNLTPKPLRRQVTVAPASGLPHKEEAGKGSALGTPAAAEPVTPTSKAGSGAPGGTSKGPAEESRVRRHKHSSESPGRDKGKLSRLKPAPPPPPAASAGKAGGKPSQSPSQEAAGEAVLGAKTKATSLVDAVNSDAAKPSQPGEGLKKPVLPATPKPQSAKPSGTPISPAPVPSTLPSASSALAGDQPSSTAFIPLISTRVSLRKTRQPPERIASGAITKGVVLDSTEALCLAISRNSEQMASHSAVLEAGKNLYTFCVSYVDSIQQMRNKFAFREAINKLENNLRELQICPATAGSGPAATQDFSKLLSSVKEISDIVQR
- EXPERIMENT: Abl enzymatic assay (ADP-Glo kinase assay)
- EXPERIMENTAL PARAMETERS: mean of at least three experiments; 30 μM ATP; read-out: Bcr-Abl Ki
Return type: number; implicit unit nM.

{"columns": ["MOLECULE", "SYSTEM TESTED", "UNIT SPEC", "OBSERVED MEASUREMENT"],
 "data": [
  ["CSc1nc(Nc2ccccc2Cl)c2cnn(CC(Cl)c3ccccc3)c2n1 (centres unmarked)", "Abl (Homo sapiens, UniProt P00519)", "nM", 450]
]}

// next entry
Q: Provide Ki value for the following molecule: CSc1nc(Nc2cccc(Cl)c2)c2cnn(CC(Cl)c3ccccc3)c2n1 (centres unmarked) [1a, reference compound]
A: 600

###

- SYSTEM TESTED: Fyn (Homo sapiens)
- Construct: purchased Merck-Millipore
- EXPERIMENT: Fyn enzymatic assay (ADP-Glo kinase assay)
- Format: biochemical
- EXPERIMENTAL PARAMETERS: 10 µM
- Experimental: Src, Fyn, and Abl were purchased from Merck-Millipore. Reactions were performed according to the manufacturer’s instructions with minor modifications. All substrates were used at least at twice the concentration of apparent Km. […] To avoid peptide adsorbing to the plastic surface, protein low-binding tubes were used. […] A total of 20 μL of detection reagent (Promega) was then added for 30 min and the reaction read using a GloMax Discover microplate reader (Promega). […]
Label t when inhibition at 10 µM is at or above 20%; anything below gets f.

Here's what some known entries look like.
{"columns": ["COMPOUND", "CAT"],
 "data": [
  ["ClC(Cn1ncc2c(Nc3ccccc3)nc(C3CCCCC3)nc21)c1ccccc1 (centres unmarked) [2j]", "f"],
  ["ClC(Cn1ncc2c(Nc3ccccc3)nc(-c3ccccc3)nc21)c1ccccc1 (centres unmarked) [2n]", "t"],
  ["Clc1cccc(Nc2nc(C3CCCC3)nc3c2cnn3CC(Cl)c2ccccc2)c1 (centres unmarked) [2i]", "f"]
]}

Continue with the next compound.
Q: # bool: inhibition at 10 µM of CC(C)Sc1nc(Nc2cccc(Cl)c2)c2cnn(CC(Cl)c3ccccc3)c2n1 (centres unmarked) [2d] >= 20%
A: f

###

READOUT KIND: melting point

// solved cases for melting point follow
{"columns": ["COMPOUND", "melting point"],
 "data": [
  ["CCSc1nc(Nc2ccccc2)c2cnn(CC(Cl)c3ccccc3)c2n1 (centres unmarked) [2c]", "128 to 131 °C"],
  ["ClC(Cn1ncc2c(Nc3ccccc3)nc(-c3ccccc3)nc21)c1ccccc1 (centres unmarked) [2n]", "130 to 140 °C (dec.)"],
  ["Clc1cccc(Nc2nc(-c3ccccc3)nc3c2cnn3CC(Cl)c2ccccc2)c1 (centres unmarked) [2o]", "82 to 84 °C"],
  ["Clc1ccccc1Nc1nc(SCCN2CCOCC2)nc2c1cnn2CC(Cl)c1ccccc1 (centres unmarked) [2e]", "117 to 118 °C"]
]}

Q: Provide melting point value for the following compound: CSc1nc(Nc2ccccc2)c2cnn(CC(Cl)c3ccc(F)cc3)c2n1 (centres unmarked) [2p]
A: 227 to 230 °C

###

melting point listing for selected compounds.

// solved cases for melting point follow
{"columns": ["COMPOUND", "melting point"],
 "data": [
  ["ClC(Cn1ncc2c(Nc3ccccc3)nc(C3CCCCC3)nc21)c1ccccc1 (centres unmarked)", "134 to 136 °C"],
  ["FC(F)(F)c1nc(Nc2ccccc2)c2cnn(CC(Cl)c3ccccc3)c2n1 (centres unmarked)", "139 to 141 °C"],
  ["Oc1cc(Nc2nc(SCCN3CCOCC3)nc3c2cnn3CC(Cl)c2ccccc2)c(F)cc1F (centres unmarked)", "146 to 149 °C"],
  ["Cc1nc(Nc2ccccc2)c2cnn(CC(Cl)c3ccc(Cl)cc3)c2n1 (centres unmarked)", "202 to 203 °C"]
]}

// next entry
Q: Provide melting point value for the following compound: Fc1cccc(Nc2nc(C(F)(F)F)nc3c2cnn3CC(Cl)c2ccccc2)c1 (centres unmarked)
A: 164 to 166 °C

###

- SYSTEM TESTED: Fyn (Homo sapiens, UniProt P06241)
- Construct: purchased Merck-Millipore
- EXPERIMENT: Fyn enzymatic assay (ADP-Glo kinase assay)
- Assay type: biochemical
- EXPERIMENTAL PARAMETERS: 100 µM
READOUT KIND: inhibition at 100 µM
# output: numeric value plus its unit

{"columns": ["COMPOUND", "OBSERVED MEASUREMENT"],
 "data": [
  ["CC(C)Sc1nc(Nc2cccc(Cl)c2)c2cnn(CC(Cl)c3ccccc3)c2n1 (centres unmarked)", "26%"],
  ["Clc1cccc(Nc2nc(C3CCCC3)nc3c2cnn3CC(Cl)c2ccccc2)c1 (centres unmarked)", "19%"],
  ["FC(F)(F)c1nc(Nc2ccccc2)c2cnn(CC(Cl)c3ccccc3)c2n1 (centres unmarked)", "66%"],
  ["CCc1nc(Nc2ccccc2)c2cnn(CC(Cl)c3ccccc3)c2n1 (centres unmarked)", "82%"]
]}

// next entry
Q: Provide inhibition at 100 µM value for the following compound: ClC(Cn1ncc2c(Nc3ccccc3)nc(C3CCCCC3)nc21)c1ccccc1 (centres unmarked)
A: 38%

###

- SYSTEM TESTED: Src (Homo sapiens)
- Construct: purchased Merck-Millipore
- Sequence (P12931 whole entry, species assumed): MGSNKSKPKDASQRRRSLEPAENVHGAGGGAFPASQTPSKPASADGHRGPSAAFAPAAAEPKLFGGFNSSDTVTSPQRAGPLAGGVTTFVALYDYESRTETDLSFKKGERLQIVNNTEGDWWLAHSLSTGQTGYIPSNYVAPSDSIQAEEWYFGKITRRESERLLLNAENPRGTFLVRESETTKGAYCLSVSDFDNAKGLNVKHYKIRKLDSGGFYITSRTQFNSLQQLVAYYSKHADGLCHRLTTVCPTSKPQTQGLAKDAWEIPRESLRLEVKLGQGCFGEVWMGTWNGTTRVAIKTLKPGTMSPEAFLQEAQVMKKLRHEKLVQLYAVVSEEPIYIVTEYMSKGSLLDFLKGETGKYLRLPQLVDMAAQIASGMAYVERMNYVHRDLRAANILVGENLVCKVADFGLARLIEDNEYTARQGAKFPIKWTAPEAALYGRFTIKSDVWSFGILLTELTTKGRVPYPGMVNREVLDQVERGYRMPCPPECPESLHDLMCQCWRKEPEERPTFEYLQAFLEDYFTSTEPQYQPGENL
- EXPERIMENT: Src enzymatic assay (ADP-Glo kinase assay)
- Format: biochemical
- EXPERIMENTAL PARAMETERS: 1 µM
READOUT KIND: inhibition at 1 µM (%)
Return type: number; implicit unit %.

{"columns": ["COMPOUND", "inhibition at 1 µM (%)"],
 "data": [
  ["Cc1nc(Nc2ccccc2)c2cnn(CC(Cl)c3ccc(Cl)cc3)c2n1 (stereo not drawn) [2q]", 29],
  ["CCSc1nc(Nc2ccccc2)c2cnn(CC(Cl)c3ccccc3)c2n1 (stereo not drawn) [2c]", 16],
  ["CSc1nc(Nc2ccccc2)c2cnn(CC(Cl)c3ccc(F)cc3)c2n1 (stereo not drawn) [2p]", 14]
]}

Q: Provide inhibition at 1 µM value for the following compound: Oc1cc(Nc2nc(SCCN3CCOCC3)nc3c2cnn3CC(Cl)c2ccccc2)c(F)cc1F (stereo not drawn) [2g]
A: 43.3

Q: Provide inhibition at 1 µM value for the following compound: ClC(Cn1ncc2c(Nc3ccccc3)nc(-c3ccccc3)nc21)c1ccccc1 (stereo not drawn) [2n]
A: 11

Q: Provide inhibition at 1 µM value for the following compound: CSc1nc(Nc2ccc(Cl)cc2)c2cnn(CC(Cl)c3ccccc3)c2n1 (stereo not drawn) [2b]
A: 24
